assay: qHTS to identify inhibitors of the type 1 interferon - major histocompatibility complex class I in skeletal muscle: Secondary screen by immunofluorescence; details: C25cl48 myoblasts, IFN-b induced HLA-ABC immunofluorescence, 24 h; series mostly up to 49.8 µM; further: nearly all actives have a fitted effect of over 70% in size
Source text: […]
Inconclusive results are not listed. The source made the active and inactive calls. The call rests on the fitted dose curve; in most records, active means well fitted inhibition curve with a large enough effect; inconclusive means small, poorly fitted or top-dose-only effect; inactive means no such curve, though single readings can be large or run the other way.
Could you please pick one outcome from this set? yes (1) for active, no (0) for inactive

Molecule	Category
COC(=O)[C@]12CCC(C)(C)C[C@H]1[C@H]1C(=O)C=C3[C@@]4(C)C=C(C#N)C(=O)C(C)(C)[C@@H]4CC[C@@]3(C)[C@]1(C)CC2	yes (1)
CC(C)[C@]12O[C@H]1[C@@H]1O[C@@]13[C@@]1(C)CCC4=C(COC4=O)[C@@H]1C[C@@H]1O[C@@]13C2=O	yes (1)
CC(C)[C@]12O[C@H]1[C@@H]1O[C@]13[C@]1(O[C@H]1C[C@H]1C4=C(CC[C@@]13C)C(=O)OC4)[C@@H]2O	yes (1)

stdin: Assay outcome for C[C@@H]1O[C@@H](O[C@H]2C[C@@H](O)[C@]3(CO)[C@H]4[C@H](O)C[C@]5(C)[C@@H](C6=CC(=O)OC6)CC[C@]5(O)[C@@H]4CC[C@]3(O)C2)[C@H](O)[C@H](O)[C@H]1O : what was it?
stdout: yes (1)

stdin: Check the results log: what was the call for COc1cccc2c1C(=O)c1c(O)c3c(c(O)c1C2=O)C[C@@](O)(C(=O)CO)CC3OC1CC(N2CCOC(OC)C2)C(O)C(C)O1 (some centres undefined) ?
stdout: yes (1)

stdin: GET /call?item= COC(=O)[C@@]12OC[C@]34[C@H]([C@@H](O)[C@@H]1O)[C@@]1(C)CC(=O)C(O)=C(C)[C@@H]1C[C@H]3OC(=O)[C@H](OC(=O)/C=C(\C)C(C)C)[C@@H]24 returns the recorded outcome of this test.
stdout: yes (1)

stdin: In this assay, the call recorded for O=C1/C(=C\c2ccccc2)C[C@@]2(O)[C@H]3Cc4ccc(O)c5c4[C@@]2(CCN3CC2CC2)[C@H]1O5 was what?
stdout: yes (1)

stdin: Give the logged outcome of this assay for the following molecule: CC(C)(C)c1cc(C=C(C#N)C#N)cc(C(C)(C)C)c1O
stdout: no (0)

stdin: For this molecule, state the assay outcome: C/C(=C\c1csc(C)n1)[C@@H]1C[C@@H]2O[C@]2(C)CCC[C@H](C)[C@H](O)[C@@H](C)C(=O)C(C)(C)[C@@H](O)CC(=O)O1
stdout: no (0)

* * *

assay: qHTS to identify inhibitors of the type 1 interferon - major histocompatibility complex class I in skeletal muscle: Secondary screen by immunofluorescence; details: C25cl48 myoblasts, IFN-b induced HLA-ABC immunofluorescence, 24 h; series mostly up to 49.8 µM; further: nearly all actives have a fitted effect of over 70% in size; further: potency means the concentration at half of the fitted maximal effect
Text: […]
Results filed as inconclusive are left out. The source made the active and inactive calls. The call rests on the fitted dose curve; in most records, active means well fitted inhibition curve with a large enough effect; inconclusive means small, poorly fitted or top-dose-only effect; inactive means no such curve, though single readings can be large or run the other way.
# Lookup of reported Potency keyed by entry

stdin: Could you share which Potency value was measured for Cc1sc2c(c1C)C(c1ccc(Cl)cc1)=N[C@@H](CC(N)=O)c1nnc(C)n1-2 ?
stdout: 0.162 µM (active)

stdin: Recorded Potency for O=c1[nH]c2ccc(Cl)cc2c(N[C@@H]2CN3CCC2CC3)c1-c1nc2ccccc2[nH]1 , please?
stdout: 1.62 µM (active)

stdin: What Potency value was documented for this compound, CC1=C(O)C(=O)C=C2C1=CC=C1[C@@]2(C)CC[C@@]2(C)[C@@H]3C[C@](C)(C(=O)O)CC[C@]3(C)CC[C@]12C ?
stdout: 1.15 µM (active)
